All values here come from the OligoGym collection.

- target_under_test: PPM1D
- assay_name: pooled miR-30 sensor sort-seq; sequence = guide strand; further: reference of the scale not given here
- assay_context: shRNA
Tick Satisfied if sensor-assay potency score (higher = more potent) is -0.6 or greater. Tick Not satisfied if sensor-assay potency score (higher = more potent) is less than -0.6.

{"macromolecule_sequence": "TTTTACAGCAACTTATACCCTA", "target_under_test": "PPM1D", "group": "Satisfied"}
{"macromolecule_sequence": "TTGAGTAACGTCCTCCATGTAC", "target_under_test": "PPM1D", "group": "Not satisfied"}
{"macromolecule_sequence": "TTGAGGGTATGACTACACCTTG", "target_under_test": "PPM1D", "group": "Not satisfied"}
{"macromolecule_sequence": "TATAATATACTTGTGCTTCTGA", "target_under_test": "PPM1D", "group": "Satisfied"}
{"macromolecule_sequence": "TAACAGAGTTCTTTCGCTGTGA", "target_under_test": "PPM1D", "group": "Satisfied"}

---

- target_under_test: MOBKL1B
- assay_name: pooled miR-30 sensor sort-seq; sequence = guide strand
- assay_context: shRNA
Tick Satisfied if sensor-assay potency score (higher = more potent) is 0.3 or greater. Tick Not satisfied if sensor-assay potency score (higher = more potent) is less than 0.3.

{"macromolecule_sequence": "TTGAATGTTTTAGAAGAGCGGC", "group": "Not satisfied"}
{"macromolecule_sequence": "TTTTGGTGCAGAACATTTGATT", "group": "Not satisfied"}
{"macromolecule_sequence": "TTCATCATCAAGCTGATCTTGA", "group": "Satisfied"}
{"macromolecule_sequence": "TAAAAGAATAAAACCAATCTGA", "group": "Not satisfied"}
{"macromolecule_sequence": "TTTAATATTAGTACCATCTGCC", "group": "Satisfied"}
{"macromolecule_sequence": "AATATTAGTACCATCTGCCCAG", "group": "Not satisfied"}

---

- target_under_test: HIC1
- assay_name: pooled miR-30 sensor sort-seq; sequence = guide strand
- assay_context: shRNA
Form field: sensor-assay potency score (higher = more potent) (one value per entry).
measured_endpoint: sensor-assay potency score (higher = more potent)

{"macromolecule_sequence": "TTCAGCTGCTCAGAGCTGGGGA", "experimental_result": -0.306}
{"macromolecule_sequence": "TTGTAGCTCTTGTCGCACGACG", "experimental_result": -1.22}
{"macromolecule_sequence": "TACAGCTCGGCGCAGTGCGTGT", "experimental_result": -1.35}
{"macromolecule_sequence": "TTGCGTTGCTGTGCGAACTTGC", "experimental_result": -0.297}
{"macromolecule_sequence": "TGAGGTTGCGTTGCTGTGCGAA", "experimental_result": -0.814}
{"macromolecule_sequence": "ATCGTGTCCAGCATCGTCTGCC", "experimental_result": -0.128}
{"macromolecule_sequence": "TTGTCGCACGACGCGCAGCGGT", "experimental_result": -1.62}
{"macromolecule_sequence": "TTCTTGGACAGGTCCAGGCCAC", "experimental_result": -0.94}

---

- target_under_test: NUP214
- assay_name: pooled miR-30 sensor sort-seq; sequence = guide strand
- assay_context: shRNA
measured_endpoint: sensor-assay potency score (higher = more potent)

{"macromolecule_sequence": "TAATGATGCTGTCTCTCCGTGC", "target_under_test": "NUP214", "experimental_result": -0.651}
{"macromolecule_sequence": "TAAAGTTCACAAATATCTCTGG", "target_under_test": "NUP214", "experimental_result": 0.255}
{"macromolecule_sequence": "TTATCAACTATTTTGTTGGGAT", "target_under_test": "NUP214", "experimental_result": 0.33}
{"macromolecule_sequence": "TAGAACATCATTCACATCTTGG", "target_under_test": "NUP214", "experimental_result": -0.0154}
{"macromolecule_sequence": "TTTAGTAGGAAAAATCTGCAAG", "target_under_test": "NUP214", "experimental_result": -0.492}
{"macromolecule_sequence": "TTGACTTTGACAGCAGAGGTTG", "target_under_test": "NUP214", "experimental_result": -0.446}
{"macromolecule_sequence": "TAATCTGATCACTTTGTCGAGC", "target_under_test": "NUP214", "experimental_result": -0.175}
{"macromolecule_sequence": "TTTGTTGGGATCATCTCCGGGT", "target_under_test": "NUP214", "experimental_result": -0.0183}
{"macromolecule_sequence": "TTTTGTTGGGATCATCTCCGGG", "target_under_test": "NUP214", "experimental_result": -0.302}
{"macromolecule_sequence": "TAACTCTTCCAACTCCTTCTGA", "target_under_test": "NUP214", "experimental_result": -0.0589}
